Each entry below carries its recorded Kd.
biological target: DCAF1 WD40 domain (residues 1077-1390) (Homo sapiens); construct: DCAF1 WD40 domain (residues 1077-1390); experiment: DCAF1 binding assay by SPR (Biacore 8K+), DCAF1-3 KD; details: 25 °C, read-out: DCAF1-3 SPR (KD)
Sequence (Q9Y4B6 1077-1390): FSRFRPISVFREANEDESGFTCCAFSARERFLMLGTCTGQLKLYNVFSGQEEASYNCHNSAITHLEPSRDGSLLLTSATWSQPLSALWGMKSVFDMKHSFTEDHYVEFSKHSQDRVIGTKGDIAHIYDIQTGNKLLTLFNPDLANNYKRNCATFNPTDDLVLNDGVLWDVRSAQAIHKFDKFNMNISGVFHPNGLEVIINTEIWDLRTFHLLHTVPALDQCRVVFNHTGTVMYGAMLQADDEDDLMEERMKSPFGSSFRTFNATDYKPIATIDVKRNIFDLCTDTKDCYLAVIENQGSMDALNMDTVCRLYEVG

NC(=O)C[C@H](NC(=O)c1cn[nH]c1-c1cc(CCC(=O)O)ccc1F)c1cccc(Cl)c1 [I-284] :: 10 to 100 µM

Fc1ccccc1N1CCC[C@@H](Nc2cc(N3CCOCC3)ncn2)C1 [I-3] yielded Kd of > 200 µM

NC(=O)C[C@H](NC(=O)c1c[nH]c(-c2ccc[nH]2)c1-c1ccccc1F)c1cccc(Cl)c1 [I-600] yielded Kd of < 10 µM

Fc1cccc(N2CCC[C@@H](Nc3cc(C4CCOCC4)[nH]n3)C2)c1 [I-608] yielded Kd of > 200 µM

OCCc1ccc(N2CCC[C@@H](Nc3cc(N4CCOCC4)ccn3)C2)nc1 [I-691] yielded Kd of 10 to 100 µM

Fc1cccc(N2CCC[C@@H](Nc3cc([C@H]4CCCCN4)ccn3)C2)c1 [I-126] yielded Kd of > 200 µM
